- Tested on: K4 kissing-loop RNA reporter;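 further: bound reporter read as fluorescence of individual clusters on recovered sequencing chips by microscopy, with normalized cluster intensities fitted with a binding model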
- ASSAY_SUMMARY: apparent KD of K4 kissing-loop reporter; higher = weaker reporter binding
- CONDITION_SUMMARY: Eterna round: R107; input ligand: tryptophan 2.4 mM
READOUT_NAME: apparent KD of K4 kissing-loop reporter (nM)

[[record]]
record_sequence = "AUAUUACUAUACGAUACCAGCCCUAACACUAGUGACGCGGUAAUAGUGAUGUUGUAACCCGGCCCUUGGCAGCGUAAUCAUGGAA [theeternabot_sameState_KL_Theo_B_7]"
assayed_system = "K4 kissing-loop RNA reporter"
unit_symbol = "nM"
measured_value = 475

[[record]]
record_sequence = "UGACUGGACUGAAGGAGCGGGCGAGACAAAGUCUCGAACUCGUAGUGAUGUUAUGAAAUAACCCAGGUAGGUCGCAGUCUAGUCU"
assayed_system = "K4 kissing-loop RNA reporter"
unit_symbol = "nM"
measured_value = 789

[[record]]
record_sequence = "UGACUGGACUGAAGGAGCGCGCGAGACAAAGUCUCGAACUGCUAGUGAUGUUAGCGAAUAACGCAGGUAGGUCGCAGUCUAGUCU [ArgBS 14 #SwitchBubble #StaticStem]"
assayed_system = "K4 kissing-loop RNA reporter"
unit_symbol = "nM"
measured_value = 156

[[record]]
record_sequence = "CGGCGGAGUGAUGUUCCACCUACUGCGGAUACCAGCUUUGCCAGAGGCCCUUGGCAGCCGCACGGCUCAGUGAUGUUGGGUUGCG [Same State Theophylline A G12]"
assayed_system = "K4 kissing-loop RNA reporter"
unit_symbol = "nM"
measured_value = 195

[[record]]
record_sequence = "AGUUCUUGCCGAAGGAGCGAGGCAGAGUGAUGUUCUGCAAAGAGGUCGAAAGACCUCCUGCCUCAGGUAGGUCGCGGCAUGAACA [Omei KL Arginine B Exc A v5]"
assayed_system = "K4 kissing-loop RNA reporter"
unit_symbol = "nM"
measured_value = 1260

[[record]]
record_sequence = "CGAGUCCUGAGGAGUGAUGUUCCUCGGCCACGAGGACCGGUACGGCCGCCACUCGUUACUCGGGCUUAGUGGCUAGCACUAAGCU [Tirete]"
assayed_system = "K4 kissing-loop RNA reporter"
unit_symbol = "nM"
measured_value = 118

[[record]]
record_sequence = "UUAGAUCAAAGAUCAGUCUUAUUGAGAGAACGAGGACCGGUACGGCCGCCACUCGAGUGAUGUUCGAGAACUCUCUUGACAAAUU [AK1 EXC Tryptophan A]"
assayed_system = "K4 kissing-loop RNA reporter"
unit_symbol = "nM"
measured_value = 258

[[record]]
record_sequence = "AUUUUGGUUGAGAGUGAUGUUCCUUGUGUUCGAGGACCGGUACGGCCGCCACUCGGGUAGAAAAUAAAAGAAAUGUUUGAUUUUU [BDazzled - #11 SS Tryptophan A]"
assayed_system = "K4 kissing-loop RNA reporter"
unit_symbol = "nM"
measured_value = 215

[[record]]
record_sequence = "CCUUUAGGCUCGGCCGCCACUCCAGUGAUGUUGGAGGUGCGUACAGAGCUAGAAAGCGUUAUCAGGAGGACCGGGAGUUUUAACG [Leorte]"
assayed_system = "K4 kissing-loop RNA reporter"
unit_symbol = "nM"
measured_value = 110

[[record]]
record_sequence = "CCCGCGGCGGGAAACCGUCGCGGGAAGGAAGGAGCGGCGAAGAAGCCAGGUAGGUCGCCUAUUGACAGUGAUGUUGUUAUAUAGA [#11]"
assayed_system = "K4 kissing-loop RNA reporter"
unit_symbol = "nM"
measured_value = 179

[[record]]
record_sequence = "UUUAUUAAGACGGCCGCCACUGAAUCAUAGUGAUGUUAUGAUAUAAUUUUAGUGAUUUUGAUUAGCAGGACCGGGUCAAUUAUUA [#26 K4 Tryptophan B Exclusion]"
assayed_system = "K4 kissing-loop RNA reporter"
unit_symbol = "nM"
measured_value = 140

[[record]]
record_sequence = "CGUUUAUAGCAGGAUACCAGUACCCAUUAUGUACGUUUAUAGUAGAGUGAUGUUCUAAAGUACCCUUGGCAGCUUCCUGUGUCCC [ExTheophylB.Ab]"
assayed_system = "K4 kissing-loop RNA reporter"
unit_symbol = "nM"
measured_value = 150

